Test system: OVCAR-5 ovarian
Test method notes: NCI-60 one-dose screen, 48 h (100 = growth as untreated, 0 = no growth, -100 = all killed)
Condition set: 10 µM unless noted
The panel holds about 83,000 compounds, 20% with a hit somewhere; the sample as a whole holds those more often.
Readout name: growth (%)
One number for each entry, in %.

Sample records with growth:
- OC1CCCCC1N1CCC(c2ccccc2)CC1 (stereo not drawn): 107
- Nc1cccc2c1Oc1ccccc1O2: 98.3
- O=[N+]([O-])c1cc([N+](=O)[O-])c(Cl)c(Cl)c1Cl: 65.6

I need growth for every entry listed below, if you could help.
1. COc1c(O)c2c3c(c1OC)-c1ccccc1CC3N(C)CC2 (stereo not drawn)
2. CCOc1c(Cl)cc(CNC(C)C(O)c2ccccc2)cc1OC (stereo not drawn)
3. Cc1ccccc1O
4. O=[As]c1ccc(C(=O)c2ccc(Oc3ccccc3)cc2)cc1 (stereo not drawn)

1. 109
2. 103
3. 121
4. -95.4

###

Give growth for every item shown.
Tested on: OVCAR-3 ovarian
Test method notes: NCI-60 one-dose screen, 48 h (100 = growth as untreated, 0 = no growth, -100 = all killed)
Condition set: 10 µM unless noted
This is part of a sample that, as a whole, favours compounds with a hit. Of some 83,000 tested, about 20% had one in any assay.
Answers are plain numbers, in %.

Recorded growth, per entry:
- CCN1CC2(CN(CC)C1=S)C(=O)NC(=O)NC2=O: 107
- CC(=O)OC1CCC2(C)C(=CCC3C4CC(CN5CC5)C(=O)C4(C)CCC32)C1 (stereo unspecified): 112
- COc1ccc(-c2ccc(OC)c(OC)c2OC)cc1: -25
- CNC(=O)O/N=C(/C)c1ccc(Cl)cc1: 114
- O=C(c1cccs1)C1NO[N+]([O-])=C1c1cccs1 (stereo unspecified): -10.4
- CC1(CF)NC(=O)NC1=O (stereo unspecified): 115

List reported growth for each of these compounds:
1. CC(C)OC(=S)[S-].[Au+].c1ccc([PH+](c2ccccc2)c2ccccc2)cc1
2. Clc1ccc(SSC(Cl)(Cl)Cl)cc1
3. CC[C@@H](C)/C=C(C)/C=C/C(=O)c1c(O)c(-c2ccc(O)cc2)cn(O)c1=O
4. CC1(C)CC2(CC(C)(C)c3cc(O)c(O)cc32)c2cc(O)c(O)cc21
5. n1nc(-c2nonc2-c2nn[nH]n2)n[nH]1
6. CNC(=O)Oc1ccccc1-c1ccccc1
7. CCOC(=O)c1cnc(SCc2ccc(Cl)c(Cl)c2)nc1N1CC1

1. -43
2. 108
3. 25.7
4. 88.9
5. 150
6. 105
7. 54.6

###

Tested on: LOX IMVI melanoma
Test method notes: NCI-60 one-dose screen, 48 h (100 = growth as untreated, 0 = no growth, -100 = all killed)
Condition set: 10 µM unless noted
The panel holds about 83,000 compounds, 20% with a hit somewhere; the sample as a whole holds those more often.
Readout name: growth (%)
Give bare numbers, in %.

Please review the entries below; each comes with its answer.
• C[CH2][Sn]([CH2]C)([CH2]C)[NH]S(=O)(=O)c1ccc(C)cc1 = 92.3
• CC(/C=N/N=C(N)N)=N/N=C(N)N = 88.9
• O=C(CCF)c1ccc(O)cc1 = 95

Quick request: growth for each listed item, please.
1. N#C[Se]CCN1C(=O)C2C(C1=O)[C@H]1C=C[C@@H]2S1 (stereo partly specified)
2. C[C@]12CCC(=O)CC1CC[C@@H]1C2CC[C@@]2(C)C1CC[C@@H]2OC(=O)CC[Se][Se]CCC(=O)O[C@H]1CCC2[C@@H]3CCC4CC(=O)CC[C@]4(C)C3CC[C@@]21C (stereo partly specified)
3. FC(F)=C(F)c1ccccc1
4. Cc1cc(C)nc(C)c1.[Cl][Hg][Cl]
5. CCCCCN(CCCCC)CC(O)c1ccc(C)c(Cl)c1 (stereo unspecified)
6. CCCC(C)(C)c1ccc2c(c1)OC(C)(C)[C@@H]1CC=C(C)C[C@@H]21
7. CC1(C)N=C(N)N=C(N)N1c1ccc(CCCCc2ccc(Cl)cc2S(=O)(=O)F)c(Cl)c1
8. C[C@]12CC[C@@H]3c4ccc(OC(=O)Cc5ccc(N(CCCl)CCCl)cc5)cc4CC[C@H]3[C@@H]1CC[C@@H]2OC(=O)Cc1ccc(N(CCCl)CCCl)cc1

1. -46
2. 80.8
3. 88.6
4. 80.2
5. 96.3
6. 96.3
7. 13.3
8. 108

Take each entry in turn and give its growth.
1. COC(=O)C[Se]C(=O)c1ccccc1OC(C)=O
2. N#C[Se]CCCNS(=O)(=O)C1CC2C=CC1C2 (stereo unspecified)
3. CCC[CH2][Sn]1([CH2]CCC)[O]C(=O)c2cccc([N+](=O)[O-])c2C(=O)[O]1
4. O=C(N/N=C/c1ccc([N+](=O)[O-])o1)c1cc([N+](=O)[O-])cc([N+](=O)[O-])c1O
5. CNC(=O)Oc1ccccc1-c1ccccc1
6. CC12CCC(=O)C=C1CCC1C2CCC2(C)C(C(=O)COC(=O)Cc3ccc(N(CCCl)CCCl)cc3)CCC12 (stereo unspecified)
7. O=C(/C=C/c1ccccc1)N[C@@H](CO)Cc1cnc[nH]1

1: 59.6; 2: -76.8; 3: -72; 4: 84.5; 5: 104; 6: 86.4; 7: 97.2

Below are some compounds; for each one, tell me its growth.
1. O=C1NC(=S)NC(=O)C1=Cc1ccccc1
2. [Cl][Hg][n]1cnc2c(Cl)c(Cl)c(Cl)cc21
3. COP(=S)(OC)Oc1ccc(SC)c(C)c1

1. 85.1
2. 79.6
3. 93.3

###

System: HL-60(TB) leukemia
Test method notes: NCI-60 one-dose screen, 48 h (100 = growth as untreated, 0 = no growth, -100 = all killed)
Condition set: 10 µM unless noted
The panel holds about 83,000 compounds, 20% with a hit somewhere; the sample as a whole holds those more often.
Criterion: growth strictly under 60%. Met: Fulfilled. Not met: Not fulfilled.

* CC(=O)c1c(C)[nH]c(-c2nc3ccc(N4CCN(C)CC4)cc3[nH]2)c1-c1ccc(OCC2CCOCC2)cc1 | Fulfilled

Okay, next one:
growth strictly < 60% for this compound? O=C(Nc1ccc(F)cc1)c1c(NC(=O)C(F)(F)F)sc2c1CCCCC2
Fulfilled

###

System: PC-3 prostate
Test method notes: NCI-60 one-dose screen, 48 h
Condition set: 10 µM unless noted
The panel holds about 83,000 compounds, 20% with a hit somewhere; the sample as a whole holds those more often. Activity calls are given as the source filed them. How the source made its calls: active means growth percent below 10; inactive means the rest.
Bench note: report the call from active, inactive

Worked examples, 3 compounds total:
• COc1ccc(CN2CCN(Cc3ccccc3)CC2)c(O)c1 = inactive
• ClCCN(CCCl)C(c1ccccc1)c1ccc(Cl)cc1 (centres undefined) = inactive
• CCOC(=O)c1cnc(SCc2ccc(Cl)c(Cl)c2)nc1N1CC1 = inactive

Returns: the outcome recorded for CNC(=O)Oc1ccccc1 in this assay.
inactive

Test call for this compound, please: CC1=C(SCCC(=O)OCC(=O)NCCC[Te]c2ccccc2)C(=O)c2ccccc2C1=O
active

// param item: C[C@]12CC[C@@H]3c4ccc(OC(=O)Cc5ccc(N(CCCl)CCCl)cc5)cc4CC[C@H]3[C@@H]1CC[C@@H]2OC(=O)Cc1ccc(N(CCCl)CCCl)cc1 ; yields the recorded call
inactive

Hi team, can someone confirm the assay call for COc1cccc2c1C(=O)c1c(O)c3c(c(O)c1C2=O)CC(O)(/C(C)=N/NC(=O)CCC(=O)N/N=C(\C)C1(O)Cc2c(O)c4c(c(O)c2C(OC2CC(N)C(O)C(C)O2)C1)C(=O)c1c(OC)cccc1C4=O)CC3OC1CC(N)C(O)C(C)O1 (centres undefined) ?
active

Please indicate how the test categorized Cc1cccc(N(C)c2cccc3c2C(=O)[Se]C3)c1C .
inactive

Entry COc1ccc(C(c2ccc(OC)cc2)C(Cl)(Cl)Cl)cc1 : call = ?
inactive

###

Test system: HL-60(TB) leukemia
Test method notes: NCI-60 one-dose screen, 48 h (100 = growth as untreated, 0 = no growth, -100 = all killed)
Condition set: 10 µM unless noted
The panel holds about 83,000 compounds, 20% with a hit somewhere; the sample as a whole holds those more often.
Readout name: growth (%)
One number for each entry, in %.

# count of solved cases: 6
* CC(=O)c1c(Nc2ccc(F)c(F)c2F)[nH]c2c(F)cc(F)cc2c1=O | -48
* CCCn1ccnc1C(O)c1ccc(OCc2ccccc2)c(OC)c1 (centres undefined) | 96.7
* O=C(N/N=C/c1cc([N+](=O)[O-])ccc1O)c1cccc2ccccc12 | -14
* CCN(CC)S(=O)(=O)c1ccc(S(=O)(=O)N2CCC[C@@H](C(=O)N3CCN(C(=O)OC(C)(C)C)CC3)C2)cc1 | 70.5
* Cc1cc(C)c(/C=C2\C(=O)Nc3ccc(NC(=O)CCCCCCC(=O)NO)cc32)[nH]1 | 19.4
* COc1cc(N2CCC(N3CCN(C)CC3)CC2)ccc1Nc1ncnc(Nc2ccccc2S(=O)(=O)C(C)C)n1 | 102

Hi! Can you tell me growth for each of these compounds?
1. CC[C@@H]1C(=O)N(C)c2cnc(Nc3ccc(C(=O)NC4CCC(N5CCN(CC6CC6)CC5)CC4)cc3OC)nc2N1C(C)C (some centres undefined)
2. Cc1cc(C(=O)Nc2cc(Nc3ncccc3-c3ncnc4nc[nH]c34)ccc2F)cc(C(F)(F)F)c1
3. Nc1cc2c(cc1N)-c1cc(N)c(N)cc1C2

1: -48.5; 2: 25.1; 3: 103
